A collection of molecules and their measured composite z-score
- test_description: small molecules captured by biotinylated probe aFGF10 – biochemical, small-molecule microarray, fluorescence 635/667, stem cell growth factor project, primary screen (AID 1071);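 further: score merges 667 nm spot intensity and signal to noise from triplicate slides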
- test_parameters: higher = more signal

{"columns": ["molecule", "composite z-score"],
 "data": [
  ["CCOC(=O)C[C@H]1[C@H](OC(=O)c2cc3ccccc3oc2=O)[C@@H](NC(=O)c2ccc3ccccc3n2)c2cc(OCCCO)ccc2N1C(=O)c1ccc2ccccc2n1", 0.936],
  ["C=CC[C@]1(C(=O)NCC(O)CO)N=C(c2ccc(OCCCO)cc2)O[C@H]1c1ccccc1N=[N+]=[N-] (some centres undefined)", 0.154],
  ["CCCc1cc2c(n1Cc1ccc(OC)cc1)C(C)C1CN(C(=O)c3ccccc3)C(C)(C(=O)OC)C21 (centres undefined)", 0.345],
  ["COc1ccc([Si](C)(C)[C@H]2[C@H](CCn3cc(CCO)nn3)O[C@@]3(C(=O)N(Cc4cccc(N5C(=O)c6cccc7cccc5c67)c4)c4ccccc43)[C@@H]2C)cc1", 0.906]
]}
